TARGET OR SYSTEM: Sodium-dependent dopamine transporter (Rattus norvegicus, UniProt P23977)
Sequence (P23977 whole entry): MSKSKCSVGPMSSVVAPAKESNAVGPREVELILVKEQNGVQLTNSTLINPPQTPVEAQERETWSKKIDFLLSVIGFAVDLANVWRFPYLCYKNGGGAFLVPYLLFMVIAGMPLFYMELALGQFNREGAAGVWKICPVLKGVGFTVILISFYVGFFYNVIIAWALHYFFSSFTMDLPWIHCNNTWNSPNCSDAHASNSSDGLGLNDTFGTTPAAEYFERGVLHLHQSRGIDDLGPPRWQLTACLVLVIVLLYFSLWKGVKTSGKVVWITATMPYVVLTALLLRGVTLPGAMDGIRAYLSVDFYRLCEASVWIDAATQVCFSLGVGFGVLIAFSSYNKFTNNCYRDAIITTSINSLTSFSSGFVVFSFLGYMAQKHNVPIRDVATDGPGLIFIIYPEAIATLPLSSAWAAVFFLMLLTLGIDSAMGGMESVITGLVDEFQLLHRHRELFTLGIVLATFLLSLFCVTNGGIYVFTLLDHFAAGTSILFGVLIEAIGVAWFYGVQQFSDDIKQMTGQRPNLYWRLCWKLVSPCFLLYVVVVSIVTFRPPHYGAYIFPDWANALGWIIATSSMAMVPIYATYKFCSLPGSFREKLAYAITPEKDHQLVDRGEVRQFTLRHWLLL
METHOD: Tested for radioligand [3H]BTCP displacement from dopamine transporter in rat forebrain
MEASUREMENT TYPE: pIC50
Please keep in mind that pIC50 is minus log10 of the molar concentration; only the number is needed.

Below, 3 compounds whose answers are already recorded.
* CC(C)=CCNC1(c2cc3ccccc3s2)CCCCC1 | 8.10
* CCN(CC)C1(c2cc3ccccc3s2)CCCCC1 | 7.92
* C=CCNC1(c2cc3ccccc3s2)CCCCC1 | 8.15

I would be grateful if you could share the reported pIC50 for CNCCCNC1(c2cc3ccccc3s2)CCCCC1 .
8.10

----------
TARGET OR SYSTEM: Sodium-dependent dopamine transporter (Rattus norvegicus)
METHOD: Tested for inhibition of radioligand [3H]dopamine (DA) uptake in rat synaptosomes
Assay type: subcellular, Brain
MEASUREMENT TYPE: log10(IC50) (log10 of the value in nM)
A value of 2 here means IC50 of 100 in nM, since values are log10.

* CNCCCNC1(c2cc3ccccc3s2)CCCCC1 | 1.95
* c1ccc2sc(C3(NCC4CC4)CCCCC3)cc2c1 | 0.60
* C=CCNC1(c2cc3ccccc3s2)CCCCC1 | 1.04
* NCC(=O)NC1(c2cc3ccccc3s2)CCCCC1 | 2.14

API: the following record is the query input.
GET /values?readout=log10(IC50)&item= CCCCN(C)C1(c2cc3ccccc3s2)CCCCC1
1.52

----------
TARGET OR SYSTEM: Sodium-dependent dopamine transporter (Rattus norvegicus, UniProt P23977)
METHOD: Tested for radioligand [3H]cocaine displacement from dopamine transporter in rat forebrain
MEASUREMENT TYPE: IC50 (nM)
The reply should contain only the number, in nM.

• C=CCNC1(c2cc3ccccc3s2)CCCCC1 = 57
• NCCNC1(c2cc3ccccc3s2)CCCCC1 = 170

Turning now to a further compound:
So what does the record say about IC50 for CNCCNC1(c2cc3ccccc3s2)CCCCC1 ?
63
